Numbers sourced from PubChem BioAssay (NCI).

- assay.info: NCI Yeast Anticancer Drug Screen. Data for the rad50 strain (AID 155);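 note: 0% = growth of vehicle-only cultures of the same strain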
- condition.set: S. cerevisiae rad50 strain growth inhibition; at 50.0 µM; stronger effect = higher value
This is part of a sample that, as a whole, favours compounds with a hit. Of some 79,000 tested, about 15% had one in any assay.
Provide the reported growth inhibition of each item.
I only need the number, in %, no unit after it.

Exercise: Need growth inhibition of O=C(CNc1ccc(Cl)cc1)Nn1c(-c2ccccc2)nc2ccccc2c1=O , thanks.
Key: 64.7

Exercise: Record: CC1=C(C(=O)Nc2cccc(Cl)c2)C(c2ccccc2F)C(C(=O)Nc2cccc(Cl)c2)=C(C)N1
Key: 71.3

Exercise: Record: CCOC(=O)c1nc(SC)sc1NC(=O)c1ccccc1Cl
Key: 19.4

Exercise: Record: COc1ccc(C2CC(c3sc(Nc4ccc(C)cc4)nc3C)=NN2)cc1 (stereo unspecified)
Key: 80.3

Exercise: Record: Cn1c(=S)sc2nc3ccccc3n2c1=S
Key: 82.3

Exercise: Record: CCCC(=O)Oc1ccc(-c2ccc(Br)cc2)cc1
Key: 92.8

###

- assay.info: NCI Yeast Anticancer Drug Screen. Data for the cln2 rad14 strain (AID 165);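 note: 0% = growth equal to vehicle treated cultures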
- condition.set: S. cerevisiae cln2 rad14 strain, at 50.0 µM, stronger effect = higher value
About 79,000 compounds went through this panel and 15% of them were active in at least one assay; those are over-represented in the sample as a whole. Where a SMILES comes first, the peptide text is derived from it. [ ]: non-standard residue; d: D form. Nva = CCC[CH](N)C(=O)O
quantity.measured: growth inhibition (%)
I only need the number, in %, no unit after it.

Exercise: Need growth inhibition of CCOC(=O)C(C(=O)O)(C(c1ccccc1)c1ccccc1)C(c1ccccc1)c1ccccc1 , thanks.
Key: 98.9

Exercise: Record: C/C(=N\Nc1n[nH]c(=S)n1N)c1c(O)cc(C)oc1=O
Key: -21

Exercise: Record: O=C(NO)Nc1nc(Cl)c(Cl)nc1Cl
Key: 83.5

Exercise: Record: COC(=O)C1CCN(Cc2ccccc2)CC1=O (stereo unspecified)
Key: 90

Exercise: Record: CC1C[N+](C)(C)C(C)C(=O)C1(c1ccccc1)c1ccccc1 (stereo unspecified)
Key: -13.4

Exercise: Record: CCN(CC)CCNc1cc(C)nc2c1ccc1c2ccc2c(NCCN(CC)CC)cc(C)nc21
Key: 93

Exercise: Record: CCCCCCCCCCC(NC(C)=O)(C(=O)OCC)C(=O)OCC
Key: 98.3

Exercise: Record: COc1ccc2c(c1)CCCN2CCCCCCCN1CCCCC1
Key: 90.2

Exercise: Record: CCOP(=O)(OCC)/C(C#N)=C/c1ccc(Oc2ccccc2)cc1
Key: 90.6

Exercise: Record: O=C(C#CC(=O)[O][Sn]([c]1ccccc1)([c]1ccccc1)[c]1ccccc1)[O][Sn]([c]1ccccc1)([c]1ccccc1)[c]1ccccc1
Key: 98.4

Exercise: Record: O=C(CSCc1c(F)cccc1Cl)Nc1ccc(F)c(Cl)c1
Key: 90.1

Exercise: Record: O=C1c2c(Br)c(Br)c(Br)c(Br)c2C(=O)N1c1nccs1
Key: 45.5

Exercise: Record: Brc1ccc(N2COc3ccc4ccccc4c3C2)cc1
Key: 0.95

Exercise: Record: Nc1nc(N)c(N=O)c(Nc2cccc(Br)c2)n1
Key: 76.7

Exercise: Record: CCCC(N)C(=O)NC(C(=O)O)C(C)C (stereo unspecified) (H-[Nva]-Val-OH; configuration not given here)
Key: 86

Exercise: Record: CCC[CH2][Sn]([CH2]CCC)([O]C(=O)c1cc(F)ccc1F)[O][Sn]([CH2]CCC)([CH2]CCC)[O]C(=O)c1cc(F)ccc1F
Key: 57.5

Exercise: Record: C=C1N(S(=O)(=O)c2ccc(C)cc2)C(=O)OCC12CCCC2
Key: 8.9

Exercise: Record: CCCC#CCCOC(=O)c1cc([N+](=O)[O-])cc([N+](=O)[O-])c1
Key: 98.9

Exercise: Record: O=C(O)c1ccccc1-c1ccccc1C(=O)Nc1ccc2c(c1)Cc1cc(F)ccc1-2
Key: 96.8

Exercise: Record: COc1cc(/C=C2\CCc3ccccc3C2=O)ccc1O
Key: 90.8

Exercise: Record: CC(=O)NNc1nc(C)c(C(=O)NNC(=O)C(=O)Nc2c(C)cccc2C(C)C)s1
Key: 9
